Test: gradient 5% acetonitrile 3 min, to 50% in 2 min, to 85% in 15 min, held 3 min, 100 µL/min
Details: column: Zorbax Extend-C18 2.1 x 50 mm; eluents: water / acetonitrile, 0.1% formic acid
Readout: RP-LC retention time (s)

Completed entries (count: 8):
>  <Compound>
Cc1ccc(NC(=O)CN2C(=O)CCc3cc(S(=O)(=O)N4CCCCC4C)ccc32)cc1F (stereo not given)

>  <RP-LC retention time [s]>
1010

$$$$
>  <Compound>
c1ccc(-c2cc(N3CCOCC3)n[nH]2)cc1

>  <RP-LC retention time [s]>
686

$$$$
>  <Compound>
Cc1c(Cl)cccc1-n1ccn2cc(-c3ccccc3)nc2c1=O

>  <RP-LC retention time [s]>
880

$$$$
>  <Compound>
Cc1ccc2c(c1)N(C(=O)Cn1ccc3ccn(Cc4ccccc4)c3c1=O)CCO2

>  <RP-LC retention time [s]>
853

$$$$
>  <Compound>
CCOC(=O)c1c(C)[nH]c(CCC(=O)NC(C)c2ccc3c(c2)OCCO3)c1C (stereo not given)

>  <RP-LC retention time [s]>
854

$$$$
>  <Compound>
CCN1C(=O)c2cccnc2Sc2cc(NC(=O)C3(c4ccccc4)CC3)ccc21

>  <RP-LC retention time [s]>
937

$$$$
>  <Compound>
Cc1noc([C@@H]2CN(C(=O)c3ccc(Br)o3)C[C@H]2CO)n1

>  <RP-LC retention time [s]>
657

$$$$
>  <Compound>
O=C(Nc1cnc2c(c1)CCC2)C1CCCC1

>  <RP-LC retention time [s]>
522

$$$$

[1] O=C(Nc1ccc2c(c1)OCCO2)N1CCC(n2c(-c3ccco3)nc3cccnc32)C1 (stereo not given)
[2] O=S(=O)(NCCC1=CCCCC1)c1ccccc1-c1nc(-c2cccc(F)c2)no1
Problem: Name the one with the greater RP-LC retention time value, either 1 or 2 as given. Give the label of your selection.
Solution: 2
(2: 1400 s, 1: 705 s)

* * *

Assay: gradient 5% acetonitrile 3 min, to 50% in 2 min, to 85% in 15 min, held 3 min, 100 µL/min
Conditions: column: Zorbax Extend-C18 2.1 x 50 mm; eluents: water / acetonitrile, 0.1% formic acid
Readout: RP-LC retention time (s)

Completed entries (count: 5):
>  <Compound>
CNC(=O)c1ccsc1NC(=O)c1cccc(C(F)(F)F)c1

>  <RP-LC retention time / s>
1160

$$$$
>  <Compound>
O=C(Nc1ccnc2ccc(Cl)cc12)c1ccc(S(=O)(=O)NC2CC2)cc1

>  <RP-LC retention time / s>
656

$$$$
>  <Compound>
Cc1cc(NC(=O)C2CCN(S(C)(=O)=O)c3ccccc3O2)ccc1Br (stereo not given)

>  <RP-LC retention time / s>
1040

$$$$
>  <Compound>
COc1cccc(CNC(=O)C2(C)CCCN(C(=O)Nc3ccccc3Cl)C2)c1 (stereo not given)

>  <RP-LC retention time / s>
919

$$$$
>  <Compound>
CCn1cc(CCNC(=O)c2cccnc2SC)c2cccnc21

>  <RP-LC retention time / s>
647

$$$$

[P] Cc1csc2nc(-c3cccc(NC(=O)c4ccccc4[N+](=O)[O-])c3)cn12
[Q] CCc1nc(-c2csc(S(=O)(=O)N3CCCC(C(=O)NC4CCC(C)CC4)C3)c2)no1 (stereo not given)
Problem: Name the one with the greater RP-LC retention time value, either P or Q as given. Give the label of your selection.
Solution: Q

[P] O=C(CCCSc1ccc(NC(=O)C2CC2)nn1)NCc1ccccc1Cl
[Q] CSc1ncccc1-c1nc(-c2ccc3oc(C)nc3c2)no1
Problem: Name the one with the greater RP-LC retention time value, either P or Q as given. Give the label of your selection.
Solution: Q
(Q: 1100 s, P: 754 s)

* * *

Test: gradient 5% acetonitrile 3 min, to 50% in 2 min, to 85% in 15 min, held 3 min, 100 µL/min
Conditions: column: Zorbax Extend-C18 2.1 x 50 mm; eluents: water / acetonitrile, 0.1% formic acid
Readout: RP-LC retention time (s)

>  <Compound>
CCOc1ccc2cccc(NC(=O)c3cc(C)oc3C)c2n1

>  <Reported result>
1310

$$$$
>  <Compound>
Cc1nn2c(CNS(=O)(=O)c3ccc(C(C)C)cc3)c(-c3ccccc3)nc2s1

>  <Reported result>
1010

$$$$
>  <Compound>
CN(CCc1noc(C2CN(C(=O)c3ccsc3)C2)n1)C(=O)C1CC1

>  <Reported result>
647

$$$$
>  <Compound>
O=C(Nc1ccc(F)c(F)c1)c1cccn1Cc1noc(C2CC2)n1

>  <Reported result>
966

$$$$
>  <Compound>
O=C(C1CCCC1)N1CCC(c2noc(-c3ccccc3)n2)C1 (stereo not given)

>  <Reported result>
924

$$$$

* * *

Experiment: gradient 5% acetonitrile 3 min, to 50% in 2 min, to 85% in 15 min, held 3 min, 100 µL/min
Details: column: Zorbax Extend-C18 2.1 x 50 mm; eluents: water / acetonitrile, 0.1% formic acid
Readout: RP-LC retention time (s)

Completed entries (count: 5):
>  <Compound>
CCc1noc(NC(C)=O)c1-c1ccc(OC)c(S(=O)(=O)Nc2ccc(OC)cc2)c1

>  <Unit descriptor>
s

>  <Reported result>
749

$$$$
>  <Compound>
CCC(=O)Nc1ccc(S(=O)(=O)NCCOc2ccc3c(c2)OCO3)cc1

>  <Unit descriptor>
s

>  <Reported result>
830

$$$$
>  <Compound>
CC(C)(C)NC(=O)N1CCC2(CC1)CC(Cc1nc(-c3cnccn3)no1)CCO2 (centres undefined)

>  <Unit descriptor>
s

>  <Reported result>
720

$$$$
>  <Compound>
Cc1ccc(S(=O)(=O)N2CCC(CCNC(=O)NCC(C)C)CC2)cc1

>  <Unit descriptor>
s

>  <Reported result>
877

$$$$
>  <Compound>
O=[N+]([O-])c1c(NCCCO)cc(NCc2ccc3c(c2)OCO3)c2nonc12

>  <Unit descriptor>
s

>  <Reported result>
668

$$$$

[1] O=C(Nc1cccc(-c2cn3c(n2)SCC3)c1)c1cc(-c2ccco2)on1
[2] CCc1cccc(NC(=O)C2CCN(S(=O)(=O)c3cc(-c4noc(C5CC5)n4)cs3)CC2)c1
Problem: In terms of reported RP-LC retention time, does 1 or 2 have the smaller number? Give the label of your selection.
Solution: 1
(1: 667 s, 2: 1110 s)

* * *

Assay: gradient 5% acetonitrile 3 min, to 50% in 2 min, to 85% in 15 min, held 3 min, 100 µL/min
Settings: column: Zorbax Extend-C18 2.1 x 50 mm; eluents: water / acetonitrile, 0.1% formic acid
Readout: RP-LC retention time (s)

>  <Compound>
COc1ccc(Cl)cc1NC(=O)CCc1c(C)nn(-c2cc(N(C)C)ncn2)c1C

>  <RP-LC retention time [s]>
940

$$$$
>  <Compound>
C=CCN1C(=O)COc2ccc(-c3csc(NC(=O)c4ccc(Br)cc4)n3)cc21

>  <RP-LC retention time [s]>
1120

$$$$
>  <Compound>
CCN(CC)CCCNC(=O)c1cc2n(n1)CC(C)(C(=O)NCc1ccccc1)N(C)C2=O (centres undefined)

>  <RP-LC retention time [s]>
581

$$$$
>  <Compound>
O=C(CN1CCN(Cc2cccc(Cl)c2)C1=O)NCC1CCCCC1

>  <RP-LC retention time [s]>
920

$$$$
>  <Compound>
COc1ccc(CNC(=O)c2cn3ccc(C)cc3n2)c(OC)c1

>  <RP-LC retention time [s]>
730

$$$$
>  <Compound>
CCc1nc2cc(N3CCC(C(=O)NCc4cccnc4)CC3)cnc2nc1CC

>  <RP-LC retention time [s]>
598

$$$$
>  <Compound>
COCCCNC(=O)C1CCN(Cc2cc3ccccc3n2Cc2ccccc2)CC1

>  <RP-LC retention time [s]>
684

$$$$
>  <Compound>
Cc1c(F)cccc1NC(=O)Nc1ccc2nnc(C)n2c1

>  <RP-LC retention time [s]>
718

$$$$
>  <Compound>
CCOC(=O)CCC(=O)NCC1(c2ccc(OC)cc2)CCCC1

>  <RP-LC retention time [s]>
856

$$$$
>  <Compound>
COc1ccc(-n2ccc(=O)c(-c3nc(-c4ccc(F)c(Cl)c4)no3)n2)cc1

>  <RP-LC retention time [s]>
966

$$$$
>  <Compound>
COc1cccc(CC(=O)NC2CCN(c3cc(-c4ccccc4)[nH]n3)C2)c1 (centres undefined)

>  <RP-LC retention time [s]>
673

$$$$
>  <Compound>
CC1(C)Cc2cccc(OCC(=O)NCCc3c[nH]c4ccccc34)c2O1

>  <RP-LC retention time [s]>
850

$$$$
>  <Compound>
Cn1cc(-c2cc3n(n2)CCC(=O)N3CCCC(=O)N2CCCCC2)c2ccccc21

>  <RP-LC retention time [s]>
802

$$$$
>  <Compound>
COc1cccc(-c2cc(C(=O)N3CCC(NC(=O)c4cccc(Cl)c4)CC3)[nH]n2)c1

>  <RP-LC retention time [s]>
740

$$$$
>  <Compound>
COc1ccc(-c2cn3c(CC(=O)N4CCN(c5ccc(F)cc5)CC4)csc3n2)cc1OC

>  <RP-LC retention time [s]>
743

$$$$
>  <Compound>
Cc1ccnc(NC(c2cccs2)c2ccc3cccnc3c2O)c1 (centres undefined)

>  <RP-LC retention time [s]>
676

$$$$
>  <Compound>
Cc1ccc(-n2c(=O)c3sccc3n(Cc3nc(-c4ccc(Cl)c(F)c4)no3)c2=O)cc1

>  <RP-LC retention time [s]>
1150

$$$$
>  <Compound>
Cc1cc(C)c(CNC(=O)C2CCN(c3cnc(N4CCSCC4)nc3)CC2)c(C)c1

>  <RP-LC retention time [s]>
959

$$$$
>  <Compound>
CC(=O)N1CCc2cc(-c3ccc(C(=O)NCc4ccc5c(c4)OCO5)cc3)ccc21

>  <RP-LC retention time [s]>
824

$$$$
